Readings of pIC50 for the listed molecules
ASSAY_TARGET: Cytochrome P450 3A4 (Homo sapiens)
Sequence (P08684 whole entry): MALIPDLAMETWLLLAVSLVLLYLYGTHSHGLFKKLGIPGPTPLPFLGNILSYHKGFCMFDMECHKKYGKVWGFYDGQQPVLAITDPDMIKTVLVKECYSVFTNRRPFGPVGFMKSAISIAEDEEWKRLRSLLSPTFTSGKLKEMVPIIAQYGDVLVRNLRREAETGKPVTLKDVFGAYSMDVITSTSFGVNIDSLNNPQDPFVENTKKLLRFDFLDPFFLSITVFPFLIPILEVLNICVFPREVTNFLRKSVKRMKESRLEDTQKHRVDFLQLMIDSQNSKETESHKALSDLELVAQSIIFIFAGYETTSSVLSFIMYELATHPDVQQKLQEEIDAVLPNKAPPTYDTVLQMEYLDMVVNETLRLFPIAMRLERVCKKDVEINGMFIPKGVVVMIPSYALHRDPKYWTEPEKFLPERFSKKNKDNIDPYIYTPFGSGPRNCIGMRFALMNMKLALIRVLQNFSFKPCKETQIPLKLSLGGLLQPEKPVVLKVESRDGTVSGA
EXPERIMENT_NOTES: Inhibition of CYP3A4 in human liver microsomes using midazolam as substrate incubated for 10 mins in presence of NADPH by LC-MS/MS analysis
Assay type: ADME, Microsome
pIC50: −log10 of the molar value.

| SMILES_STR | pIC50 |
| --- | --- |
| COc1cccc(F)c1CNc1ccc(-c2cnc(C)nc2C)c2nncn12 | < 4.70 |
| CS(=O)(=O)c1ccc(-c2cnc(NCc3ccco3)n3cnnc23)cc1 | < 4.30 |
| c1cncc(-c2cnc(NCc3cccc4c3CCO4)n3cnnc23)c1 | 4.54 |
| Cc1ncccc1-c1cnc(NCc2c(F)ccc3c2CCO3)n2cnnc12 | < 4.70 |
